experiment: Spectroscopic measurements (absorption, emission, quantum yield, extinction coefficient); format: physicochemical; conditions: BDNCA library, extinction coefficient; in M-1 cm-1 (unit assumed)
reported.endpoint: ε

# structure, test.result
data = [
    ("CC1=CC(/C=C/c2cn(C)c3ccccc23)=[N+]2C1=C(c1ccc(NC(=O)CCl)cc1)c1cccn1[B-]2(F)F", "23,890"),
    ("CC1=CC(/C=C/c2c(Cl)ccc(C)c2F)=[N+]2C1=C(c1ccc(NC(=O)CCl)cc1)c1cccn1[B-]2(F)F", "43,387"),
    ("COc1cc(F)c(/C=C/c2cc(C)c3n2[B-](F)(F)[N+]2=CC=CC2=C3c2ccc(NC(=O)CCl)cc2)cc1OC", "153,227"),
]

Moving on to the next compound.
Prompt: Answer with the recorded ε for the compound listed here: CC1=CC(/C=C/c2ccc(C)c(Cl)c2)=[N+]2C1=C(c1ccc(NC(=O)CCl)cc1)c1cccn1[B-]2(F)F
Completion: 60,686

====

Record form. Attribute: Qunt. Yield. Fill in for each entry.
experiment: Spectroscopic measurements (absorption, emission, quantum yield, extinction coefficient); type: physicochemical; conditions: BDNCA library
Numbers only.

Recorded results for 4 compounds are shown here.
# structure, test.result
rows = [
    ("COc1cc(/C=C/C2=[N+]3C(=C(c4ccc(NC(=O)CCl)cc4)c4cccn4[B-]3(F)F)C(C)=C2)cc(OC)c1OC(C)=O", 0.01),
    ("CCOc1cccc(/C=C/C2=[N+]3C(=C(c4ccc(NC(=O)CCl)cc4)c4cccn4[B-]3(F)F)C(C)=C2)c1O", 0.01),
    ("COc1ccc(-c2ccc(/C=C/C3=[N+]4C(=C(c5ccc(NC(=O)CCl)cc5)c5cccn5[B-]4(F)F)C(C)=C3)o2)cc1Cl", 0.01),
    ("C=CCOc1ccc(/C=C/C2=[N+]3C(=C(c4ccc(NC(=O)CCl)cc4)c4cccn4[B-]3(F)F)C(C)=C2)cc1", 0.07),
]

Moving on to the next compound.
Prompt: Answer with the recorded Qunt. Yield for the compound listed here: CC1=CC(/C=C/c2cccc(Oc3ccc(Cl)c(Cl)c3)c2)=[N+]2C1=C(c1ccc(NC(=O)CCl)cc1)c1cccn1[B-]2(F)F
Completion: 0.09

====

Record form. Attribute: Abs. Fill in for each entry.
experiment: Spectroscopic measurements (absorption, emission, quantum yield, extinction coefficient); assay type: physicochemical; settings: BDNCA library, absorption
One number for each entry, in nm.

Report Abs for every entry below.
1. CC1=CC(/C=C/c2ccc(OCc3ccccc3)cc2)=[N+]2C1=C(c1ccc(NC(=O)CCl)cc1)c1cccn1[B-]2(F)F
2. COc1cc(/C=C/C2=[N+]3C(=C(c4ccc(NC(=O)CCl)cc4)c4cccn4[B-]3(F)F)C(C)=C2)ccc1OCCBr
3. COc1ccc(/C=C/c2cc(C)c3n2[B-](F)(F)[N+]2=CC=CC2=C3c2ccc(NC(=O)CCl)cc2)c(OC)c1
4. CC1=CC(/C=C/c2ccc(Oc3ccc(C)cc3)cc2)=[N+]2C1=C(c1ccc(NC(=O)CCl)cc1)c1cccn1[B-]2(F)F
5. COc1ccc(Br)cc1/C=C/c1cc(C)c2n1[B-](F)(F)[N+]1=CC=CC1=C2c1ccc(NC(=O)CCl)cc1
6. CC1=CC(/C=C/c2ccc(-c3cncnc3)cc2)=[N+]2C1=C(c1ccc(NC(=O)CCl)cc1)c1cccn1[B-]2(F)F
7. CC1=CC(/C=C/c2nccn2C)=[N+]2C1=C(c1ccc(NC(=O)CCl)cc1)c1cccn1[B-]2(F)F

Completion:
1. 563
2. 569
3. 574
4. 563
5. 562
6. 563
7. 573

====

Record form. Attribute: Abs. Fill in for each entry.
assay: Spectroscopic measurements (absorption, emission, quantum yield, extinction coefficient); format: physicochemical; conditions: BDNCA library, absorption
Give bare numbers, in nm.

# structure, Abs (nm)
rows = [
    ("CC1=CC(/C=C/c2c(Cl)ccc(C)c2F)=[N+]2C1=C(c1ccc(NC(=O)CCl)cc1)c1cccn1[B-]2(F)F", 554),
]

Report Abs for every entry below.
1. CC1=CC(/C=C/c2ccc(O)c([N+](=O)[O-])c2)=[N+]2C1=C(c1ccc(NC(=O)CCl)cc1)c1cccn1[B-]2(F)F
2. CCOC(OCC)c1ccc(/C=C/C2=[N+]3C(=C(c4ccc(NC(=O)CCl)cc4)c4cccn4[B-]3(F)F)C(C)=C2)cc1
3. CCOc1cccc(/C=C/C2=[N+]3C(=C(c4ccc(NC(=O)CCl)cc4)c4cccn4[B-]3(F)F)C(C)=C2)c1O

Completion:
643
564
563

====

assay: Spectroscopic measurements (absorption, emission, quantum yield, extinction coefficient); assay type: physicochemical; conditions: BDNCA library, absorption
reported.endpoint: Abs (nm)
One number for each entry, in nm.

Recorded results for 3 compounds are shown here.
# structure, units.text, Abs
data = [
    ("CC1=CC(/C=C/c2cccc3c2OCO3)=[N+]2C1=C(c1ccc(NC(=O)CCl)cc1)c1cccn1[B-]2(F)F", "nm", 559),
    ("Cc1ccc(/C=C/c2cc(C)c3n2[B-](F)(F)[N+]2=CC=CC2=C3c2ccc(NC(=O)CCl)cc2)cc1", "nm", 558),
    ("COC(=O)c1ccc(-c2ccc(/C=C/C3=[N+]4C(=C(c5ccc(NC(=O)CCl)cc5)c5cccn5[B-]4(F)F)C(C)=C3)cc2)cc1", "nm", 566),
]

Report Abs for every entry below.
1. CC1=CC(/C=C/c2ccc(OC(C)(C)C)cc2)=[N+]2C1=C(c1ccc(NC(=O)CCl)cc1)c1cccn1[B-]2(F)F
2. Cc1cc(/C=C/c2ccc3c4c(cccc24)CC3)n2c1C(c1ccc(NC(=O)CCl)cc1)=C1C=CC=[N+]1[B-]2(F)F
3. CC1=CC(/C=C/c2cc(Cl)ccc2O)=[N+]2C1=C(c1ccc(NC(=O)CCl)cc1)c1cccn1[B-]2(F)F
4. CC1=CC(/C=C/c2ccccc2C)=[N+]2C1=C(c1ccc(NC(=O)CCl)cc1)c1cccn1[B-]2(F)F

Completion:
562
580
564
555

====

Record form. Attribute: Flu-Abs. Fill in for each entry.
test: Spectroscopic measurements (absorption, emission, quantum yield, extinction coefficient); type: physicochemical; conditions: BDNCA library, difference emission minus absorption
Numbers only.

# structure, Flu-Abs
records = [
    ("COc1cc(/C=C/C2=[N+]3C(=C(c4ccc(NC(=O)CCl)cc4)c4cccn4[B-]3(F)F)C(C)=C2)cc(OC)c1O", 6),
]

Report Flu-Abs for every entry below.
1. CC1=CC(/C=C/c2ccc(-c3ccccn3)cc2)=[N+]2C1=C(c1ccc(NC(=O)CCl)cc1)c1cccn1[B-]2(F)F
2. COc1cc(/C=C/C2=[N+]3C(=C(c4ccc(NC(=O)CCl)cc4)c4cccn4[B-]3(F)F)C(C)=C2)cc(I)c1OC
3. CC1=CC(/C=C/c2c(C)cc(C)cc2C)=[N+]2C1=C(c1ccc(NC(=O)CCl)cc1)c1cccn1[B-]2(F)F
4. Cc1cc(/C=C/c2ccccc2C(=O)O)n2c1C(c1ccc(NC(=O)CCl)cc1)=C1C=CC=[N+]1[B-]2(F)F
5. COc1cc(Cl)cc(/C=C/C2=[N+]3C(=C(c4ccc(NC(=O)CCl)cc4)c4cccn4[B-]3(F)F)C(C)=C2)c1O

Completion:
18
25
33
18
22

Report Flu-Abs for every entry below.
1. CC(=O)Nc1ccc(/C=C/C2=[N+]3C(=C(c4ccc(NC(=O)CCl)cc4)c4cccn4[B-]3(F)F)C(C)=C2)cc1
2. Cc1cc(/C=C/c2ccc3c4c(cccc24)CC3)n2c1C(c1ccc(NC(=O)CCl)cc1)=C1C=CC=[N+]1[B-]2(F)F

Completion:
1. 29
2. 54

Report Flu-Abs for every entry below.
1. COc1cccc(F)c1/C=C/C1=[N+]2C(=C(c3ccc(NC(=O)CCl)cc3)c3cccn3[B-]2(F)F)C(C)=C1
2. CC1=CC(/C=C/c2ccc(/C=C/c3ccccc3)cc2)=[N+]2C1=C(c1ccc(NC(=O)CCl)cc1)c1cccn1[B-]2(F)F

Completion:
1: 22; 2: 33

Report Flu-Abs for every entry below.
1. C=CCOc1ccccc1/C=C/C1=[N+]2C(=C(c3ccc(NC(=O)CCl)cc3)c3cccn3[B-]2(F)F)C(C)=C1
2. CC1=CC(/C=C/c2ccc(Cl)c(Cl)c2)=[N+]2C1=C(c1ccc(NC(=O)CCl)cc1)c1cccn1[B-]2(F)F
3. COc1ccc(/C=C/C2=[N+]3C(=C(c4ccc(NC(=O)CCl)cc4)c4cccn4[B-]3(F)F)C(C)=C2)cc1OC
4. COc1cccc(Oc2ccccc2/C=C/C2=[N+]3C(=C(c4ccc(NC(=O)CCl)cc4)c4cccn4[B-]3(F)F)C(C)=C2)c1
5. CC1=CC(/C=C/c2cccc(O)c2Cl)=[N+]2C1=C(c1ccc(NC(=O)CCl)cc1)c1cccn1[B-]2(F)F
6. CC1=CC(/C=C/c2cccc(O)c2)=[N+]2C1=C(c1ccc(NC(=O)CCl)cc1)c1cccn1[B-]2(F)F
7. COc1cc2ccccc2c(/C=C/C2=[N+]3C(=C(c4ccc(NC(=O)CCl)cc4)c4cccn4[B-]3(F)F)C(C)=C2)c1OC

Completion:
1. 24
2. 18
3. 48
4. 23
5. 18
6. 19
7. 36

Report Flu-Abs for every entry below.
1. CCOc1cccc(/C=C/C2=[N+]3C(=C(c4ccc(NC(=O)CCl)cc4)c4cccn4[B-]3(F)F)C(C)=C2)c1O
2. CC1=CC(/C=C/c2ccc(-c3ccccc3)s2)=[N+]2C1=C(c1ccc(NC(=O)CCl)cc1)c1cccn1[B-]2(F)F
3. CC1=CC(/C=C/c2ccccc2)=[N+]2C1=C(c1ccc(NC(=O)CCl)cc1)c1cccn1[B-]2(F)F
4. CCCCc1ccc(/C=C/C2=[N+]3C(=C(c4ccc(NC(=O)CCl)cc4)c4cccn4[B-]3(F)F)C(C)=C2)cc1
5. Cc1cccc(/C=C/c2cc(C)c3n2[B-](F)(F)[N+]2=CC=CC2=C3c2ccc(NC(=O)CCl)cc2)c1
6. COc1ccc(/C=C/C2=[N+]3C(=C(c4ccc(NC(=O)CCl)cc4)c4cccn4[B-]3(F)F)C(C)=C2)cc1Cl
7. Cc1cc(/C=C/c2ccc(-c3ccccc3)cc2)n2c1C(c1ccc(NC(=O)CCl)cc1)=C1C=CC=[N+]1[B-]2(F)F

Completion:
15
37
23
23
19
27
23

Report Flu-Abs for every entry below.
1. COc1ccc(/C=C/c2cc(C)c3n2[B-](F)(F)[N+]2=CC=CC2=C3c2ccc(NC(=O)CCl)cc2)c(Br)c1O
2. COc1ccc(/C=C/c2cc(C)c3n2[B-](F)(F)[N+]2=CC=CC2=C3c2ccc(NC(=O)CCl)cc2)cc1
3. CC1=CC(/C=C/c2csc3ccccc23)=[N+]2C1=C(c1ccc(NC(=O)CCl)cc1)c1cccn1[B-]2(F)F

Completion:
29
30
33
